- assay.protocol: chemical genetic growth profiling, strain panel (AID 1159580);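 note: tested at 20 µM; growth read once vehicle control cultures reached saturation at 30 °C; lower values mean less growth of the strain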
- run.conditions: S. cerevisiae deletion strains, growth OD, locus YLR262C, strain YPT6 (second series), stronger effect = lower value
About 2,000 (36%) of roughly 5,500 compounds were called active. About 18% were inconclusive and are not listed. Some of the results follow.
Category | rule: reported normalized growth within range, see group A = under 0.9, group B = from 0.9 up to 1, group C = 1 and over

CCCCOc1ccc(CC(=O)NO)cc1 :: group A

Hi there! Could you help me figure out the category for CCc1nc(N)nc(N)c1-c1ccc(Cl)cc1 please? group B

Form field 'band' for CC(C)(C)CC(C)(C)c1ccc(OCCOCC[N+](C)(C)Cc2ccccc2)cc1 group A

Consider COc1ccc2c(c1)OC[C@@H](Cc1ccc(OC)c(OC)c1)[C@H]2O . To which normalized growth class does it belong? group A

Which of the defined bands does the recorded normalized growth of COc1ccc(-c2coc3c(OC)c(OC)cc(O)c3c2=O)cc1 sit within? group B

Form: Item = COc1c(O)cc2oc3cc(O)c(CC=C(C)C)c(O)c3c(=O)c2c1CC=C(C)C ; Class = ? group A
